Reference for the values: the supplement of paper PMC9801561

Let's look at some compounds and their measured DuctApe activity index.
system: Escherichia coli Nissle 1917; experiment: DuctApe activity index of respiration/growth curve (0 no growth to 9 maximum) (index 0-9); higher = more growth / nutrient utilisation, active = 3 or more; extreme values may be limits of the assay; details: nutrient role: sole nitrogen source (pyruvate carbon); incubation: 48 h, 37 °C
The answer should be written as a number, with no unit following it.

{"columns": ["COMPOUND", "DuctApe activity index"],
 "data": [
  ["CC(=O)N[C@H]1C(O)O[C@H](CO)[C@H](O)[C@@H]1O (stereo partly drawn) [N-Acetyl-D-Galactosamine]", 2.33],
  ["O=C1CC[C@@H](C(=O)O)N1 [L-Pyroglutamic acid]", 0],
  ["NC(=O)NC1NC(=O)NC1=O (stereo not given) [Allantoin]", 1.67]
]}

Now look at this entry.
# compound "C[C@H](N)C(=O)NCC(=O)O" ; its DuctApe activity index = 8

* * *

tested on: Escherichia coli Nissle 1917; experiment: DuctApe activity index of respiration/growth curve (0 no growth to 9 maximum) (index 0-9); higher = more growth / nutrient utilisation, active = 3 or more; extreme values may be limits of the assay; conditions: nutrient role: sole phosphorus source (pyruvate carbon); incubation: 48 h, 37 °C
MEASURED PARAMETER: DuctApe activity index

Some solved cases for reference:
{"columns": ["MOLECULE", "TARGET UNDER TEST", "DuctApe activity index"],
 "data": [
  ["O=C[C@H](O)[C@@H](O)[C@H](O)[C@H](O)COP(=O)(O)O [D-Glucose-6-Phosphate]", "Escherichia coli Nissle 1917", "8.67 (active)"],
  ["C[N+](C)(C)CCOP(=O)(O)O", "Escherichia coli Nissle 1917", "8.67 (active)"]
]}

Record NC(Cc1ccc(OP(=O)(O)O)cc1)C(=O)O (stereo in doubt) . Reported DuctApe activity index: 9 (active)

O=P(O)(O)OC[C@H]1OC(O)[C@@H](O)[C@@H](O)[C@@H]1O (stereo partly drawn) [D-Mannose-6-Phosphate] has a reported DuctApe activity index of 8.33 (active)

The measured DuctApe activity index associated with "O=P(O)(O)CP(=O)(O)O" reads 0.667 (inactive)

* * *

tested on: Escherichia coli Nissle 1917; assay: DuctApe activity index of respiration/growth curve (0 no growth to 9 maximum) (index 0-9); higher = more growth / nutrient utilisation, active = 3 or more; extreme values may be limits of the assay; details: nutrient role: sole phosphorus source (pyruvate carbon); incubation: 48 h, 37 °C;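 note: biolog PM4 phosphorus and sulfur plates, tetrazolium violet dye reduction read in the OmniLog every 15 min, kinetic curves scored by DuctApe, each plate run in triplicate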
A correct response names exactly one class from class 1 (active), class 0 (inactive)

Example cases with answers are listed next.
{"columns": ["COMPOUND", "CATEGORY"],
 "data": [
  ["NC(=O)OP(=O)(O)O [Carbamyl Phosphate]", "class 1"],
  ["C=C(OP(=O)(O)O)C(=O)O [Phosphoenol Pyruvate]", "class 1"],
  ["Nc1nc2c(ncn2[C@@H]2O[C@H](CO)[C@@H](OP(=O)(O)O)[C@H]2O)c(=O)[nH]1 [Guanosine 3`-Monophosphate]", "class 1"],
  ["O=c1ccn([C@@H]2O[C@H](CO)[C@@H](OP(=O)(O)O)[C@H]2O)c(=O)[nH]1 [Uridine 3`-Monophosphate]", "class 1"],
  ["N[C@H](COP(=O)(O)O)C(=O)O", "class 1"],
  ["O=P(O)(O)OC[C@H]1OC(O)C[C@@H](O)[C@@H]1O (stereo partly drawn) [2-Deoxy-D-Glucose 6-Phosphate]", "class 0"],
  ["NCCOP(=O)(O)O", "class 1"],
  ["O=C(O)CP(=O)(O)O", "class 0"],
  ["O=P1(O)OP(=O)(O)OP(=O)(O)O1 [Trimetaphosphate]", "class 1"],
  ["N[C@@H]1[C@@H](O)[C@H](O)[C@@H](COP(=O)(O)O)O[C@@H]1O [D-Glucosamine-6-Phosphate]", "class 1"]
]}

Inquiry: # outcome recorded in this test, key = Cc1cn([C@H]2C[C@H](OP(=O)(O)O)[C@@H](CO)O2)c(=O)[nH]c1=O [Thymidine 3`-Monophosphate]
Reply text: class 1

Inquiry: Each compound tested received a call. Report the one for "C[C@@H](OP(=O)(O)O)[C@H](N)C(=O)O" .
Reply text: class 1

Inquiry: So what was the verdict on "N[C@@H](COP(=O)(O)O)C(=O)O" in this test?
Reply text: class 1

Inquiry: What did the test return for Nc1ncnc2c1ncn2[C@@H]1O[C@@H]2COP(=O)(O)O[C@H]2[C@H]1O [Adenosine 3`,5`-Cyclic Monophosphate] ?
Reply text: class 1

Inquiry: Test call, this compound: "O=C(O)COP(=O)(O)O"
Reply text: class 1

Inquiry: GET /call?item= "O=C(O)[C@H](O)[C@@H](O)[C@H](O)[C@H](O)COP(=O)(O)O" returns the recorded outcome of this test.
Reply text: class 1
